System: SW-620
Assay: Cytotoxicity against SW620 colon cancer cell line done for 72 h at 37 degree C with compound in MTS assay
Assay type: functional, cell-based, Homo sapiens
Details: Homo sapiens, SW-620, 72 h
pIC50: −log10 of the molar value. Structures can show the parent of a compound that is named as a salt.
Consider the following compounds and their measured pIC50 readings.
REPORTED_ENDPOINT: pIC50

{"COMPOUND": "COc1cccc2c1C(=O)c1c(O)c3c(c(O)c1C2=O)C[C@@](O)(C(C)=O)C[C@@H]3OC1CC(N)C(OC2CC(C)(OC)C(O)C(C)O2)C(C)O1 (stereo not given in full)", "VALUE_PREFIX": "=", "NUMERIC_READOUT": 7.94}
{"COMPOUND": "COc1cccc2c1C(=O)c1c(O)c3c(c(O)c1C2=O)C[C@@](O)(C(C)=O)C[C@@H]3OC1CC(N)C(OC2CC(O)C(O)C(CO)O2)C(C)O1 (stereo not given in full)", "VALUE_PREFIX": "<", "NUMERIC_READOUT": 6.00}
{"COMPOUND": "COc1cccc2c1C(=O)c1c(O)c3c(c(O)c1C2=O)C[C@@](O)(C(C)=O)C[C@@H]3OC1CC(N)C(OC2CC(N=[N+]=[N-])C(O)C(C)O2)C(C)O1 (stereo not given in full)", "VALUE_PREFIX": "=", "NUMERIC_READOUT": 7.22}
{"COMPOUND": "COc1cccc2c1C(=O)c1c(O)c3c(c(O)c1C2=O)C[C@@](O)(C(C)=O)C[C@@H]3O[C@H]1C[C@H](N)[C@H](O)[C@H](C)O1 [DAUNORUBICIN HYDROCHLORIDE]", "VALUE_PREFIX": "=", "NUMERIC_READOUT": 8.07}
{"COMPOUND": "COc1cccc2c1C(=O)c1c(O)c3c(c(O)c1C2=O)C[C@@](O)(C(C)=O)C[C@@H]3OC1CC(N)C(OC2OC(C)C(O)C(O)C2O)C(C)O1 (stereo not given in full)", "VALUE_PREFIX": "<", "NUMERIC_READOUT": 6.00}
